Molecular target: STAT4 SH2 domain (Homo sapiens)
Sequence (Q14765 1-748): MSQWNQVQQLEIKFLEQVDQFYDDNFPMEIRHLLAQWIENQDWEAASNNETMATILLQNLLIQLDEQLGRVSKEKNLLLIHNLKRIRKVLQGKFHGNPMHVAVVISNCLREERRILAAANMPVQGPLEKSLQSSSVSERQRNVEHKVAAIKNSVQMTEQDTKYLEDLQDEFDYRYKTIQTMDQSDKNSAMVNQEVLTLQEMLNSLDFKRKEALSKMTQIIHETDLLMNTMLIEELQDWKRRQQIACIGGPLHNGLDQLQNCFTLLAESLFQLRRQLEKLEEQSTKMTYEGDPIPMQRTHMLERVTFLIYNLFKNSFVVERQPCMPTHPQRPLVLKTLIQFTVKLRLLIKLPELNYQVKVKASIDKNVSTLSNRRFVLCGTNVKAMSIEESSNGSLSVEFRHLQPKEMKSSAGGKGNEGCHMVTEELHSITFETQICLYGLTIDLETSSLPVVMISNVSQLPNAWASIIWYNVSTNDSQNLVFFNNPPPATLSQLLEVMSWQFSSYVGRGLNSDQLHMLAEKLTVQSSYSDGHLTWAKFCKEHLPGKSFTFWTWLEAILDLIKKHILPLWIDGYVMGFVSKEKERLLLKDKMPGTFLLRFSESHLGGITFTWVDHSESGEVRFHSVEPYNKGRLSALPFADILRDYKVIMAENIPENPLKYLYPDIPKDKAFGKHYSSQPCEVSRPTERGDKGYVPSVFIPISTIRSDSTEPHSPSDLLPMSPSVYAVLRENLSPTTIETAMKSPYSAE
Experiment: Competitive fluorescence polarization (FP) assay, STAT4
Assay type: binding
Conditions: 28 nM STAT4, 10 nM tracer peptide
Answer each item with its documented pIC50.
Note: pIC50 values are expressed as the negative base-10 logarithm of concentration in M.

Recall the recorded pIC50 for O=P(O)(O)Oc1ccc2c(c1)Cc1ccccc1-2 with STAT4 SH2 domain (Homo sapiens) and state it.
5.82

Similarly, O=P(O)(O)Oc1ccc(-c2nccs2)cc1 ?
5.06

Try the molecule O=P(O)(O)Oc1ccc(-c2ccsc2)cc1
5.92

Next molecule up: O=P(O)(O)Oc1ccc2c(c1)oc1ccccc12
5.75

Follow-up item: Cc1cc(-c2ccc(OP(=O)(O)O)c(F)c2)cs1
6.43

Another molecule to check: O=P(O)(O)Oc1ccc(-c2cccs2)cc1
5.96

Proceed to O=P(O)(O)Oc1ccc(-c2cccs2)cc1F
6.22

Item: O=P(O)(O)Oc1ccc(-c2ccsc2)cc1F
6.28
